target: Muscarinic acetylcholine receptor M1 (Rattus norvegicus); experiment: muscarinic receptor subtype activation panel – cell-based, agonist mode, selectivity assay for M1 allosteric modulator project, profiling panel (AID 1744); settings: CHO-K1 rat M1, Fluo-4 calcium flux
Observed Property: EC50

Reported EC50, compound CCOC(=O)N1CCC(NCCNC(=O)c2ccccc2Cl)CC1 : ____
804 nM

Check CCOC(=O)N1CCC(NCCNC(=O)c2ccc(F)cc2)CC1 too.
154 nM

Further, for CCOC(=O)N1CCC(NCCNC(=O)c2ccc(F)c(F)c2)CC1 ?
211 nM

Now the compound CCOC(=O)N1CCC(NCCNC(=O)c2ccccc2C)CC1
198 nM

Now try CCOC(=O)N1CCC(NCCNC(=O)c2ccccc2)CC1 .
152 nM

Consider next the compound CCOC(=O)N1CCC(NCCNC(=O)c2cccs2)CC1 in the same way.
1740 nM

Further, for CCOC(=O)N1CCC(NCCNC(=O)c2cccc(F)c2)CC1 ?
154 nM

What do we get for CCOC(=O)N1CCC(NCCNC(=O)c2cccc(OC)c2)CC1 ?
438 nM
